Test system: CHEK2
Details: concentration: 1 μM, replicates: in singlicate; n = 1
Consider the following compounds and their measured %Inh readings.
Provide the reading as a plain figure in %.

- Compound: "COc1ccc(Nc2nccc(N3CCC(NC(=O)Nc4cccc(C(C)=O)c4)C3)n2)cc1 (centres unmarked) [GSK1379731]"
  %Inh (%): 0
- Compound: "Cc1cccc(-c2nc(-c3ccc(S(C)(=O)=O)cc3)sc2-c2ccncc2)c1"
  %Inh (%): 1
- Compound: "Cc1c(Cn2c(C)nn3c(=O)cc(N4CCOC(C)C4)nc23)cccc1C(F)(F)F (centres unmarked) [GSK2344444]"
  %Inh (%): 0
- Compound: "NS(=O)(=O)CCc1cccc(Nc2nccc(-c3c(-c4cccc(NC(=O)c5c(F)cccc5F)c4)nn4ccccc34)n2)c1 [GSK336735]"
  %Inh (%): 0
- Compound: "COc1cc(Nc2nccc(N3CCC(NC(=O)c4cccc(NC(C)=O)c4)C3)n2)cc(OC)c1OC (centres unmarked) [GSK1379754]"
  %Inh (%): 19

Hi! What's the reported %Inh for Cc1nnc(-c2ccc3ncc(-c4ccc(S(C)=O)cc4)n3c2)o1 (centres unmarked) on CHEK2?
0

Query %Inh on CHEK2 for COc1cc2ncn(-c3cc(OCc4sccc4Cl)c(C(N)=O)s3)c2cc1OC [GSK448459]
6

Please tell me: %Inh of Cl.Nc1ncnc2occ(-c3ccc(NC(=O)Nc4cc(C(F)(F)F)ccc4F)cc3)c12 [SB-707548] , system CHEK2?;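 note: KINOMEscan kinase panel screen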
45

Record N#Cc1c(N2CCOCC2)sc(-c2ccn[nH]2)c1-c1ccc(Cl)cc1 : what is its %Inh with CHEK2?
15

Give recorded %Inh with CHEK2 for the following compound: N#Cc1ccc(-c2cc(-c3c[nH]nc3-c3ccccn3)ccn2)cc1 [GW693028]
0

Identify the measured %Inh of CCc1nc(-c2cccc(C)c2)c(-c2ccnc(NCc3ccccc3)c2)s1 for CHEK2.
10
